tested on: OS-RC-2; test: Cytotoxicity against human OS-RC2 cells after 72 hrs by CCK-8 assay; assay type: functional, cell-based; conditions: OS-RC-2, 72 h
Endpoint Label: IC50 (µM)
State just the number; it will be interpreted in µM.

[[record]]
smiles_text = "CC[C@H](C)/C=C(C)/C=C/C1=CC2=C(Cl)C(=O)[C@](C)(O)[C@@H](CC(C)=O)C2=CO1"
unit_spec = "µM"
test_result = 3.9

[[record]]
smiles_text = "CC[C@H](C)/C=C(C)/C=C/C1=CC2=C(Cl)C(=O)[C@]3(C)OC(=O)/C(=C(\\C)O)[C@]3(O)[C@@]23O[C@H]3O1"
unit_spec = "µM"
test_result = 38

[[record]]
smiles_text = "CC[C@H](C)/C=C(C)/C=C/C1=CC2=C(Cl)[C@H](OC)[C@]3(C)O[C@](C)(OC)[C@H](C(C)=O)[C@H]3C2=CO1"
unit_spec = "µM"
test_result = 44


*Q* Which value of IC50 has been reported for CC[C@H](C)/C=C(C)/C=C/C1=CC2=C(Cl)C(=O)[C@](C)(O)[C@@H](O)[C@H]2CO1 in the records?
*A* 4.9

*Q* Tell me the measured IC50 of CC[C@H](C)/C=C(C)/C=C/C1=CC2=C(Cl)[C@H](OC)[C@]3(C)O[C@@](C)(OC)[C@H](C(C)=O)[C@H]3C2=CO1 , please.
*A* 13

*Q* Can you look up the measured IC50 of CC[C@H](C)/C=C(C)/C=C/C1=CC2=C(Cl)[C@H](O)[C@]3(C)OC(=O)[C@H](C(C)=O)[C@H]3C2=CO1 for me?
*A* 45

----------
test system: ACHN; test: Cytotoxicity against human ACHN cells after 72 hrs by CCK-8 assay; format: functional, cell-based
A collection of compounds and their measured pIC50
Note on pIC50: it is the negative log10 of concentration, concentration in mol/L.

Recorded results for 3 compounds are shown here.
[[record]]
smiles_text = "CC[C@H](C)/C=C(C)/C=C/C1=CC2=C(Cl)C(=O)[C@](C)(O)[C@@H](CC(C)=O)C2=CO1"
endpoint_label = "pIC50"
test_result = 5.36

[[record]]
smiles_text = "CC[C@H](C)/C=C(C)/C=C/C1=CC2=C(Cl)C(=O)[C@]3(C)OC(=O)/C(=C(\\C)O)[C@]3(O)[C@@]23O[C@H]3O1"
endpoint_label = "pIC50"
test_result = 4.89

[[record]]
smiles_text = "CC[C@H](C)/C=C(C)/C=C/C1=CC2=C(Cl)[C@H](OC)[C@]3(C)O[C@@](C)(OC)[C@H](C(C)=O)[C@H]3C2=CO1"
endpoint_label = "pIC50"
test_result = 4.85


Next:
*Q* Quick check: pIC50 of CC[C@H](C)/C=C(C)/C=C/C1=CC2=C(Cl)[C@H](O)[C@]3(C)OC(=O)[C@H](C(C)=O)[C@H]3C2=CO1 ?
*A* 4.57

Where do the numbers come from? From ChEMBL document CHEMBL4251681.
